Target: Amine oxidase [flavin-containing] A (Homo sapiens, UniProt P21397)
Sequence (P21397 whole entry): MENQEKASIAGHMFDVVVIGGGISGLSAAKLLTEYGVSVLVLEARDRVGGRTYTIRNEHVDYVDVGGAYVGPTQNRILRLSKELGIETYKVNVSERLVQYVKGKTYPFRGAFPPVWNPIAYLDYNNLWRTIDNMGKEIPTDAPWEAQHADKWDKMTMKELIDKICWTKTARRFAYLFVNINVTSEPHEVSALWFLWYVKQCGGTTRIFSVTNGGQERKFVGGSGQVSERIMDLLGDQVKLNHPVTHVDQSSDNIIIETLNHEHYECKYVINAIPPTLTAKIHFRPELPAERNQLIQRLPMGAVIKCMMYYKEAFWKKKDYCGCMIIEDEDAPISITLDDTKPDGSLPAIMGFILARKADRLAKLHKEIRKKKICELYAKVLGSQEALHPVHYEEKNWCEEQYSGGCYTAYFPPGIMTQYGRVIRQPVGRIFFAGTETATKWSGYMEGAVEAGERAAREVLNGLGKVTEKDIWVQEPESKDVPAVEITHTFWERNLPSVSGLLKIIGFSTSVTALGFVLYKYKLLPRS
measurement type: Ki (µM)
// return numeric value only (unit: µM, not printed)

For the compound C[n+]1ccc(CCc2ccccc2)cc1 [MPP analogue, 17] , what Ki is on record?
37

Now for a further compound.
Dear colleague, I am looking for the recorded Ki of the following compound: C[n+]1ccc(Cc2ccccc2F)cc1 [MPP analogue, 18]
29
